# tested.target: MERTK (UniProt Q12866)
# Sequence (Q12866 whole entry, looked up): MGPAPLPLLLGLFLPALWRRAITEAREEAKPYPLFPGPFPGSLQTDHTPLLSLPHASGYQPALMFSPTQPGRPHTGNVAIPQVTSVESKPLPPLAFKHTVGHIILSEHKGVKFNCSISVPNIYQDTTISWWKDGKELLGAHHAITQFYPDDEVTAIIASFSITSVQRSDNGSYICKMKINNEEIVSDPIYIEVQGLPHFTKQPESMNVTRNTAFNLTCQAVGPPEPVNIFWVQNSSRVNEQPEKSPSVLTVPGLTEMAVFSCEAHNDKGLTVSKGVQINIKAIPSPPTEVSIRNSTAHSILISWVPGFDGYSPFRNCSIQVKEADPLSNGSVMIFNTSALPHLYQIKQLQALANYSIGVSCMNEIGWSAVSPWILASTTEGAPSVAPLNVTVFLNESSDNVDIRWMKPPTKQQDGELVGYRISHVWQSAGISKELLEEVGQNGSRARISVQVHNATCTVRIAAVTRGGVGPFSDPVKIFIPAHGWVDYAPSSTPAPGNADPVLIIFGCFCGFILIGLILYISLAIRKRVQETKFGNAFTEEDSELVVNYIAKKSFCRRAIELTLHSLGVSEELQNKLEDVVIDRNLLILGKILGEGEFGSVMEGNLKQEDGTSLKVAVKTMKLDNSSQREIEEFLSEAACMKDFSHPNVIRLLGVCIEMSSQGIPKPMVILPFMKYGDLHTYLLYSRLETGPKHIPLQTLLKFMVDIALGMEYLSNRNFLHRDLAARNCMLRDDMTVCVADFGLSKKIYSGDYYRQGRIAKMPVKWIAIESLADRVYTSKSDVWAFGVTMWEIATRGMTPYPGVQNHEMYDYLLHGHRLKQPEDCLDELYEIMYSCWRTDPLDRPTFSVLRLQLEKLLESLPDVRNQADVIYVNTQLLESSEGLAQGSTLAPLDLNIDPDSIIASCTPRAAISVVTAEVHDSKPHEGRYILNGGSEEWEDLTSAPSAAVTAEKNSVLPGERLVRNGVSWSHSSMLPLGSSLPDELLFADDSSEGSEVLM
# run.description: phosphorylation enrichment, bacterial display (enrichment ratio); higher = better substrate or ligand; peptides without Tyr show the background;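 further: 11-residue human phosphosite peptides and single-mutation variants displayed on the E. coli surface, counted by deep sequencing, each peptide's frequency after selection divided by its frequency in the unselected input library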;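 further: frequency after pTyr selection over input frequency; kinase dosed for 20-30% of maximal phosphorylation in three min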
quantity.name: phosphorylation enrichment
Respond with the number and no other words.

IN: Please indicate phosphorylation enrichment recorded for KLVRLYAVVTR [LYN_Y306]
OUT: 0.497

* * *

# Test system: c-Abl (mouse)
# run.description: phosphorylation enrichment, bacterial display (enrichment ratio); higher = better substrate or ligand; peptides without Tyr show the background
quantity.name: phosphorylation enrichment
Please reply with the number alone, leaving off any unit.

Some solved entries appear below for comparison.
ELANLYHHVCM [BICD2_Y538] | 0.982
FFDANYDGKEF [MAPRE2_Y162_YF] | 0.611
LSRDVYEEDSY [RET_Y900] | 0.906

IN: Fill in: phosphorylation enrichment on c-Abl (mouse), entry YMKEPYIQSRF [HIPK4_Y175_V171M]
OUT: 0.632

IN: Specify phosphorylation enrichment for CEHFSYYGMKA [SLC15A2_Y60_R57H] , system c-Abl (mouse).
OUT: 0.708

IN: Enter recorded phosphorylation enrichment with c-Abl (mouse) for KDAGDYKFKAK [LRIT3_Y326_C328Y_YF] here.
OUT: 0.338

IN: // output phosphorylation enrichment; input DIDKIYVRTGI [PIK3CA_Y355] ; system c-Abl (mouse)
OUT: 0.713

IN: Jot down phosphorylation enrichment (c-Abl (mouse)) of PHIKTYMRPSP [TDP1_Y497] .
OUT: 0.654

IN: Look up and report measured phosphorylation enrichment (c-Abl (mouse)) for the following sequence: SVVVSYEPPEV [TP53_Y220_P219S]
OUT: 0.749

IN: Give the observed phosphorylation enrichment of RRIHSYRGQLW [VHL_Y112_H115Q] for c-Abl (mouse).
OUT: 0.906

IN: GET phosphorylation enrichment where system = c-Abl (mouse) and item = RGLQVYHRRNA [LRP2_Y2010]
OUT: 0.957

IN: // output phosphorylation enrichment; input FDEFRYRSVIK [CFTR_Y517_YF] ; system c-Abl (mouse)
OUT: 0.544

IN: With c-Abl (mouse) as the test system, provide measured phosphorylation enrichment for this sequence: RREWYYEVIIA [BACE1_Y260_V265A]
OUT: 0.542

IN: Send back c-Abl (mouse) phosphorylation enrichment of RPDSPYSRLHD [DOK2_Y271_P274L] only.
OUT: 0.957
